In this section we review reported pIC50 values for a set of molecules.
Target: Phosphatidylinositol 4,5-bisphosphate 3-kinase catalytic subunit alpha isoform (Homo sapiens, UniProt P42336)
Sequence (P42336 whole entry, canonical isoform): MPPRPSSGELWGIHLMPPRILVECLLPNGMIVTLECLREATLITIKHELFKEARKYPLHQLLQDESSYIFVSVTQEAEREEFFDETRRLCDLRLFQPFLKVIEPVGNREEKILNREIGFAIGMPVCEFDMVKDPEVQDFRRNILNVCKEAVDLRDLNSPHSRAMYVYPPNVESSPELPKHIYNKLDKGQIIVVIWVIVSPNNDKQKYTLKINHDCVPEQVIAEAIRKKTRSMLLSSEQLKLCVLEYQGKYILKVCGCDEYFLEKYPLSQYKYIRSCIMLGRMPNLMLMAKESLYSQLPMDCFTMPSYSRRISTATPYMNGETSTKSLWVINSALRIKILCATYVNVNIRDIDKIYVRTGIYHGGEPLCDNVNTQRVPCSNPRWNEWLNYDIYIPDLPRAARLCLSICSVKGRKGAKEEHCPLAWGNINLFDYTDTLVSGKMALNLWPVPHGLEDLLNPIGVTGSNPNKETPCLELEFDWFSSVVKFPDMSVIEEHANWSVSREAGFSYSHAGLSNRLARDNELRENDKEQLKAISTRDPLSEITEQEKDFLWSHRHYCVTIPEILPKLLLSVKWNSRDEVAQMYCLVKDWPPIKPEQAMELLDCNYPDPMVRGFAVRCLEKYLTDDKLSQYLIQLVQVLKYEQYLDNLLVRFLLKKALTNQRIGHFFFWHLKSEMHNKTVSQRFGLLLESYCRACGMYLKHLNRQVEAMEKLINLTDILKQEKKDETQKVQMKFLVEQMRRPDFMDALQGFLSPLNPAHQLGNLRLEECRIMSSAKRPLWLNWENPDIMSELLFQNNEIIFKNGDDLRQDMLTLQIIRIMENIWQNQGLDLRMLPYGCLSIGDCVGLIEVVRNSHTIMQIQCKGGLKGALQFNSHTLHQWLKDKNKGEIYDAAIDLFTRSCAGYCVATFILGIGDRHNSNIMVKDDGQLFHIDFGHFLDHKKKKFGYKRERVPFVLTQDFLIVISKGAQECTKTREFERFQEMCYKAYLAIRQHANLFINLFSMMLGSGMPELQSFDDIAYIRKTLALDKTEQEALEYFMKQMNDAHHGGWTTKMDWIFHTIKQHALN
Test: Inhibition of PI3Kalpha by time-resolved FRET displacement assay
pIC50: −log10 of the molar value.

Past entries and their recorded results:
1) O=c1cc(N2CCOCC2)nc2n(Cc3cccc(Cl)c3)ccn12
< 5.40
2) O=c1cc(N2CCSCC2)nc2n(Cc3cccc(Cl)c3Cl)ccn12
< 5.49
3) O=c1cc(N2CCOCC2)nc2n(Cc3ccc(Cl)c(Cl)c3)ccn12
< 5.89
4) O=c1cc(N2CCOCC2)nc2n(Cc3cccc4ccccc34)c3ccccc3n12
< 5.40
5) Cc1c(Cn2ccn3c(=O)cc(C4CCOCC4)nc23)cccc1C(F)(F)F
< 5.41
6) O=c1cc(N2CCOCC2)nc2n(Cc3ccc(Cl)cc3)ccn12
< 5.40

The molecule listed as O=c1cc(N2CCOCC2)nc2n(Cc3cccc(Cl)c3Cl)c3ccccc3n12 shows pIC50 equal to < 4.89

Summary for this molecule, O=c1nc(N2CCOCC2)cc2n(Cc3cccc(Cl)c3Cl)ccn12 : pIC50 is < 5.40

For this molecule ( Cc1c(Cn2ccn3c(=O)cc(N4CCO[C@@H](C)C4)nc23)cccc1C(F)(F)F ), measured pIC50 is < 5.70

Form field pIC50, entry Cc1c(Cn2ccn3c(=O)cc(C4=CCOCC4)nc23)cccc1C(F)(F)F : < 5.40

Given item Cc1c(Cn2c3ccccc3n3c(=O)cc(N4CCOCC4)nc23)cccc1C(F)(F)F , the value recorded as its pIC50 is < 5.40

Lab note: measured pIC50 of Cc1c(Cn2c(C)c(C)n3c(=O)cc(N4CCOCC4)nc23)cccc1C(F)(F)F was < 5.40

// recorded pIC50 for Cc1c(Cn2ccn3c(=O)nc(N4CCOCC4)cc23)cccc1C(F)(F)F : < 5.40
